Entries annotated with measured %Inh
# Tested on: ITK
# Test Parameters: concentration: 1 μM, replicates: in singlicate; n = 1
Quick note: give the figure in %, leave out the unit.

# annotated cases, reported %Inh shown
[
  {
    "Compound": "CC(C)(C)c1ccc(C(=O)Nc2cn3cc(-c4cccnc4)ccc3n2)cc1",
    "%Inh (%)": 24
  },
  {
    "Compound": "Cc1csc(-c2nc(Nc3ccncc3)c3ccccc3n2)n1 [GW869640]",
    "%Inh (%)": 11
  }
]

Let us move to another entry and its %Inh.
Could you share what %Inh was measured for O=C(Nc1n[nH]c2nc(-c3nccs3)c(Br)cc12)C1CC1 [SB-742251] , tested on ITK?;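 further: KINOMEscan kinase panel screen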
13
